Origin of measurements: patent US12392782B2

Target: HSA (Homo sapiens, UniProt P02768)
Sequence (P02768 25-609): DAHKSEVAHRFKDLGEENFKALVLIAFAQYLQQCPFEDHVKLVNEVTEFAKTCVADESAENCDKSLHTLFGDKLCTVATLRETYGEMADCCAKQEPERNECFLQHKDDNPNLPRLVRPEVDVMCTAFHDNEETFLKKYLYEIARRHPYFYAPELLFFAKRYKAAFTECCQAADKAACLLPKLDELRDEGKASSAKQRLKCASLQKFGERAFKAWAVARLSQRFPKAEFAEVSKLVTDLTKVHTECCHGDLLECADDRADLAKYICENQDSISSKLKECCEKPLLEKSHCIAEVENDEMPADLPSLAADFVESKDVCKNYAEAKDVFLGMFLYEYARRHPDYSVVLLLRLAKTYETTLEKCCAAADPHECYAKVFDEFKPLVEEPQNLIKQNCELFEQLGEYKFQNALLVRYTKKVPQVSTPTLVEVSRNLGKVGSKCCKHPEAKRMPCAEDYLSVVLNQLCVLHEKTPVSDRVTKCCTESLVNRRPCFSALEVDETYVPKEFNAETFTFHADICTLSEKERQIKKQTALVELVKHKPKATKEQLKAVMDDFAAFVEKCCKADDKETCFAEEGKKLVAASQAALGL
Test: Differential scanning fluorimetry (DSF) thermal shift assay of HSA binding
Settings: PFAS; single site ligand binding model; mean ± SEM
readout_kind: Kd (µM)
Only the number, expressed in µM, is required.

Answered cases to consult:
O=S(=O)(O)CCC(F)(F)C(F)(F)C(F)(F)C(F)(F)F
1070
O=C(O)C(F)(OC(F)(F)C(F)(F)C(F)(F)F)C(F)(F)F (centres unmarked) [HFPO-DA, hexafluoropropylene oxide dimer acid]
1600
O=C(O)C(F)(F)OC(F)(F)C(F)(F)OC(F)(F)C(F)(F)OC(F)(F)F
1530
O=C(O)C(F)(F)C(F)(F)C(F)(F)C(F)(F)C(F)(F)C(F)(F)C(F)(F)C(F)(F)C(F)(F)C(F)(F)C(F)(F)F
1890
O=C(O)C(F)(F)C(F)(F)C(F)(F)C(F)(F)C(F)(F)C(F)(F)F
440
O=S(=O)(O)CCC(F)(F)C(F)(F)C(F)(F)C(F)(F)C(F)(F)C(F)(F)F [6:2 FTSA, 2H,2H,3H,3H-Perfluorooctane-1-sulfonate]
370
O=S(=O)(O)C(F)(F)C(F)(F)C(F)(F)C(F)(F)C(F)(F)C(F)(F)F
710

Kd of FC(OC(F)(F)C(F)(F)C(F)(F)F)C(F)(F)F (centres unmarked) [E1] , assay on HSA (Homo sapiens, UniProt P02768), is 1640

----------
Target: bovine serum albumin (BSA) (Bos taurus, UniProt P02769)
Sequence (P02769 25-607): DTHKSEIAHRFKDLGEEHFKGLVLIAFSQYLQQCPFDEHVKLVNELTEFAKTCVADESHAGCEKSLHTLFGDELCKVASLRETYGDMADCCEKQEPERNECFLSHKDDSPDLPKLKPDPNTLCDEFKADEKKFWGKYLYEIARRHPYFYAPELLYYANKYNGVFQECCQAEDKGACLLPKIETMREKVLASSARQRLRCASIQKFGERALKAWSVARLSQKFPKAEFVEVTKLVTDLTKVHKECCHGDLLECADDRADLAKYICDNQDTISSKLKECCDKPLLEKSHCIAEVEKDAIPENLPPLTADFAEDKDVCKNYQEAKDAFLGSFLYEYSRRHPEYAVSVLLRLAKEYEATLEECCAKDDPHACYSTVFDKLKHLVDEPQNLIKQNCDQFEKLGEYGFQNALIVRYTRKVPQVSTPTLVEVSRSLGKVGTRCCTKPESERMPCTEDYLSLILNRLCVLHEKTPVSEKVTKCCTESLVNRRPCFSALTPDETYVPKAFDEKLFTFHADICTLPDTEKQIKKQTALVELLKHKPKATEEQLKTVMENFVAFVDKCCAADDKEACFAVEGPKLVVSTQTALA
Assay: DSF thermal shift assay of bovine serum albumin binding
readout_kind: Kd (µM)
Only the number, expressed in µM, is required.

The value of Kd measured for the compound "O=S(=O)(O)C(F)(F)C(F)(F)C(F)(F)C(F)(F)F" turned out to be 1130

The value of Kd measured for the compound "O=C(O)C(F)(F)C(F)(F)C(F)(F)C(F)(F)C(F)(F)C(F)(F)C(F)(F)F" turned out to be 750

The value of Kd measured for the compound "O=C(O)C(F)(F)C(F)(F)C(F)(F)C(F)(F)C(F)(F)F" turned out to be 950

The value of Kd measured for the compound "O=C(O)C(F)(F)C(F)(F)C(F)(F)F" turned out to be 980

----------
# pKd per record follows
Molecular target: Porcine serum albumin (PSA) (Sus scrofa)
Sequence (P08835 25-607): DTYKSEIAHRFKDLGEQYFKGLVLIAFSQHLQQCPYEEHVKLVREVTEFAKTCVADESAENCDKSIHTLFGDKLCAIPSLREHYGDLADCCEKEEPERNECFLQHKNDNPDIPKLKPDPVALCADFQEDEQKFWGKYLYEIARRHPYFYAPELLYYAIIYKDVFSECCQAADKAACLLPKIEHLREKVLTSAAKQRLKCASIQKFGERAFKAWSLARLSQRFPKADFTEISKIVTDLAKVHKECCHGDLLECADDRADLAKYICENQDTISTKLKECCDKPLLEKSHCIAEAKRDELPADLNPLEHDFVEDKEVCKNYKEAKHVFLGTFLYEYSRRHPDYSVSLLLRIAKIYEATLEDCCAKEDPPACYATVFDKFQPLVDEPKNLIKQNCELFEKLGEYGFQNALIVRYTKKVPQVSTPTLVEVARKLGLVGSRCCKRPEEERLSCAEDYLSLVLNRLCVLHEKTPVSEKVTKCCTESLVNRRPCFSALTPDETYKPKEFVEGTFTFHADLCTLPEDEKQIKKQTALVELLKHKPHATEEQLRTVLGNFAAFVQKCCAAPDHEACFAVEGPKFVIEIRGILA
Experiment: DSF thermal shift assay of porcine serum albumin binding
Schema: pKd number; meaning minus log10 of the concentration expressed in molar units.

O=C(O)C(F)(F)C(F)(F)C(F)(F)C(F)(F)C(F)(F)F [PFHxA, Perfluorohexanoic acid]
2.85
O=C(O)C(F)(F)C(F)(F)C(F)(F)C(F)(F)C(F)(F)C(F)(F)C(F)(F)F [PFOA, perfluorooctanoic acid]
3.49

The value of pKd measured for the compound O=S(=O)(O)C(F)(F)C(F)(F)C(F)(F)C(F)(F)F [PFBS, Perfluorobutanesulfonic acid] turned out to be 2.81

The value of pKd measured for the compound O=C(O)C(F)(F)C(F)(F)C(F)(F)F [PFBA, Perfluorobutanoic acid] turned out to be 2.82

----------
Molecular target: HSA (Homo sapiens, UniProt P02768)
Experiment: Differential scanning fluorimetry (DSF) thermal shift assay of HSA binding
readout_kind: pKd
Schema: pKd number; meaning minus log10 of the concentration expressed in molar units.

Answered cases to consult:
O=C(O)C(F)(F)C(F)(F)C(F)(F)F
2.59
O=C(O)CCC(F)(F)C(F)(F)C(F)(F)F
2.77
O=S(=O)(O)C(F)(F)C(F)(F)C(F)(F)C(F)(F)F
2.78
O=C(O)C(F)(F)C(F)(F)C(F)(F)C(F)(F)C(F)(F)C(F)(F)C(F)(F)C(F)(F)F
3.24
O=S(=O)(O)C(F)(F)C(F)(F)OC(F)(C(F)(F)F)C(F)(F)OC(F)C(F)(F)F (stereo not shown)
2.82

The value of pKd measured for the compound "O=C(O)CCC(F)(F)C(F)(F)C(F)(F)C(F)(F)C(F)(F)C(F)(F)F" turned out to be 3.09

The value of pKd measured for the compound CCCCCCCCCCCCCCCC(=O)O [Hexadecanoic Acid, hexadecanoic acid, reference compound] turned out to be 4.52

----------
Target: HSA (Homo sapiens)
Test: Differential scanning fluorimetry (DSF) thermal shift assay of HSA binding
# pEC50 per record follows
Schema: pEC50 number; meaning minus log10 of the concentration expressed in molar units.

pEC50 of "O=C(O)C(F)(F)C(F)(F)C(F)(F)C(F)(F)C(F)(F)C(F)(F)C(F)(F)C(F)(F)C(F)(F)C(F)(F)F" , assay on HSA (Homo sapiens), is 2.83

pEC50 of O=S(=O)(O)C(F)(F)C(F)(F)OC(F)(C(F)(F)F)C(F)(F)OC(F)C(F)(F)F (stereo not shown) , assay on HSA (Homo sapiens), is 2.72

pEC50 of "O=S(=O)(O)C(F)(F)C(F)(F)C(F)(F)C(F)(F)F" , assay on HSA (Homo sapiens), is 2.76

pEC50 of "O=C(O)C(F)(F)C(F)(F)C(F)(F)C(F)(F)C(F)(F)C(F)(F)C(F)(F)C(F)(F)F" , assay on HSA (Homo sapiens), is 3.22

----------
Target: HSA (Homo sapiens)
Experiment: Differential scanning fluorimetry (DSF) thermal shift assay of HSA binding
Returns: string. Value is true if measured EC50 is below 2000 µM, and false if it is greater than or equal to it.

For orientation, consider the following solved cases.
O=C(O)C(F)(F)C(F)(F)C(F)(F)C(F)(F)F
false
O=C(O)C(F)(F)C(F)(F)C(F)(F)C(F)(F)C(F)(F)C(F)(F)C(F)(F)C(F)(F)C(F)(F)F
true
O=C(O)C(F)(F)C(F)(F)C(F)(F)F
false
O=C(O)CCC(F)(F)C(F)(F)C(F)(F)C(F)(F)C(F)(F)F
true

**Q:** Does "O=C(O)C(F)(F)C(F)(F)C(F)(F)C(F)(F)C(F)(F)F" have EC50 strictly under 2000 µM?
**A:** true

**Q:** Does "O=S(=O)(O)C(F)(F)C(F)(F)C(F)(F)C(F)(F)C(F)(F)C(F)(F)C(F)(F)C(F)(F)F" have EC50 strictly under 2000 µM?
**A:** true

----------
# EC50 per record follows
Target: HSA (Homo sapiens)
Assay: Differential scanning fluorimetry (DSF) thermal shift assay of HSA binding
Conditions: PFAS; 4-parameter fit of Δ Tm; mean ± SEM
Only the number, expressed in µM, is required.

The value of EC50 measured for the compound "O=C(O)C(F)(F)C(F)(F)C(F)(F)C(F)(F)C(F)(F)C(F)(F)C(F)(F)C(F)(F)C(F)(F)C(F)(F)C(F)(F)F" turned out to be 2510

The value of EC50 measured for the compound "O=C(O)C(F)(F)C(F)(F)C(F)(F)C(F)(F)C(F)(F)C(F)(F)F" turned out to be 680

The value of EC50 measured for the compound "O=C(O)C(F)(F)OC(F)(F)C(F)(F)OC(F)(F)C(F)(F)OC(F)(F)F" turned out to be 1670

The value of EC50 measured for the compound O=S(=O)(O)CCC(F)(F)C(F)(F)C(F)(F)C(F)(F)C(F)(F)C(F)(F)F [6:2 FTSA, 2H,2H,3H,3H-Perfluorooctane-1-sulfonate] turned out to be 470

The value of EC50 measured for the compound "O=C(O)C(F)(F)C(F)(F)C(F)(F)C(F)(F)C(F)(F)C(F)(F)C(F)(F)F" turned out to be 840

The value of EC50 measured for the compound O=C(O)C(F)(OC(F)(F)C(F)(F)C(F)(F)F)C(F)(F)F (stereo not drawn) [HFPO-DA, hexafluoropropylene oxide dimer acid] turned out to be 1830

The value of EC50 measured for the compound "O=S(=O)(O)CCC(F)(F)C(F)(F)C(F)(F)C(F)(F)F" turned out to be 1450

The value of EC50 measured for the compound FC(OC(F)(F)C(F)(F)C(F)(F)F)C(F)(F)F (stereo not drawn) [E1] turned out to be 2340

The value of EC50 measured for the compound "O=S(=O)(O)C(F)(F)C(F)(F)C(F)(F)C(F)(F)C(F)(F)C(F)(F)F" turned out to be 980

----------
Target: HSA (Homo sapiens)
Test: Differential scanning fluorimetry (DSF) thermal shift assay of HSA binding
Conditions: stock solvent HEPES-buffered saline (HBS); mean ± SEM
readout_kind: pKd
Schema: pKd number; meaning minus log10 of the concentration expressed in molar units.

The value of pKd measured for the compound "O=C(O)C(F)(F)C(F)(F)C(F)(F)C(F)(F)C(F)(F)C(F)(F)C(F)(F)F" turned out to be 3.08

----------
Biological target: bovine serum albumin (BSA) (Bos taurus)
Experiment: DSF thermal shift assay of bovine serum albumin binding
Details: read-out: Bovine Kd ± SEM; bovine albumin
readout_kind: pKd
Schema: pKd number; meaning minus log10 of the concentration expressed in molar units.

The value of pKd measured for the compound O=S(=O)(O)CCC(F)(F)C(F)(F)C(F)(F)C(F)(F)C(F)(F)C(F)(F)F [6:2 FTSA, 2H,2H,3H,3H-Perfluorooctane-1-sulfonate] turned out to be 3.03
